target: Serine/threonine-protein kinase B-raf (Homo sapiens, UniProt P15056, V600E); experiment: Binding affinity to BRAF V600E mutant
Sequence (P15056 2-766 V600E limits assumed): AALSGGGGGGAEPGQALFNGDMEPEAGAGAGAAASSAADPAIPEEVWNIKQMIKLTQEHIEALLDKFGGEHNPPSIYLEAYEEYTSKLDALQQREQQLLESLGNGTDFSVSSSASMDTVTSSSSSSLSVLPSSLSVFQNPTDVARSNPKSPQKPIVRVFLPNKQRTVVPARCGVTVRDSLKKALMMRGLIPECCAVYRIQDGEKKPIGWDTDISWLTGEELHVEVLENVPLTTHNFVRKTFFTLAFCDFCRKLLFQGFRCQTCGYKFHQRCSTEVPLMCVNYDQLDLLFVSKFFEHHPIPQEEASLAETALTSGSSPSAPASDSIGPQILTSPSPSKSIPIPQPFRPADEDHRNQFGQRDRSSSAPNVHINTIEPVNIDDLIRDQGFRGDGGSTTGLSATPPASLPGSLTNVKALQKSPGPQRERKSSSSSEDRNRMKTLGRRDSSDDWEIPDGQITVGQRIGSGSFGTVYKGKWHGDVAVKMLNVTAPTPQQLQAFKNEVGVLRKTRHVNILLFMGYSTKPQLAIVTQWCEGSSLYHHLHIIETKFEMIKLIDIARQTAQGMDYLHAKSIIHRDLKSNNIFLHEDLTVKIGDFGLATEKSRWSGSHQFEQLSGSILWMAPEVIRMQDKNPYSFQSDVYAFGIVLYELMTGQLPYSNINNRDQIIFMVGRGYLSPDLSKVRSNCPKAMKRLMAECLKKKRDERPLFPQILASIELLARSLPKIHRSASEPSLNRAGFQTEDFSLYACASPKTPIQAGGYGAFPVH
parameter: Kd (nM)
Please respond with the number in nM and leave the unit unwritten.

1) COc1cc2ncnc(Oc3cccc(NC(=O)Nc4cc(C(C)(C)C)on4)c3)c2cc1OCCN1CCOCC1: 38
2) COc1cc2ncnc(Oc3cccc(NC(=O)Nc4ccc(Cl)c(C(F)(F)F)c4)c3)c2cc1OC: 98
3) COc1cccc(NC(=O)Nc2cccc(Oc3ncnc4cc(OC)c(OC)cc34)c2)c1: 90

Q: State the recorded Kd for this entry: COc1cc2ncnc(Oc3cccc(NC(=O)Nc4cc(C(C)(C)C)on4)c3)c2cc1OCCCN1CCOCC1
Ans: 29

Q: Any idea what its Kd is? The compound is COc1cc2ncnc(Oc3cccc(NC(=O)Nc4ccccc4)c3)c2cc1OC
Ans: 370

Q: May I ask what Kd has been recorded for COc1cc2ncnc(Nc3cccc(NC(=O)Nc4cc(C(C)(C)C)on4)c3)c2cc1OC ?
Ans: 40

Q: Data request, read-out Kd, for COc1cc2ncnc(Oc3cccc(NC(=O)Nc4ccc(C(C)(C)C)cc4)c3)c2cc1OC
Ans: 96

Q: Using the record for COc1cc2ncnc(Oc3cc(NC(=O)Nc4cc(C(C)(C)C)on4)ccc3F)c2cc1OC , report its Kd.
Ans: 72

---

test: Oral bioavailability in rat; type: ADME, organism-based; conditions: in vivo
parameter: bioavailability

// worked examples, bioavailability included
1. COc1cc2ncnc(Nc3ccc(NC(=O)Nc4cc(C(C)(C)C)on4)cc3)c2cc1OC.Cl: < 1%
2. COc1cc2ncnc(Oc3cccc(NC(=O)Nc4cc(C(C)(C)C)on4)c3)c2cc1OC.Cl: 49%
3. CCOc1cc2ncnc(Oc3cccc(NC(=O)Nc4cc(C(C)(C)C)on4)c3)c2cc1OC.Cl: 16%
4. COCCOc1cc2ncnc(Oc3cccc(NC(=O)Nc4cc(C(C)(C)C)on4)c3)c2cc1OC.Cl: 56%
5. COc1cc2c(Oc3cccc(NC(=O)Nc4cc(C(C)(C)C)on4)c3)ncnc2cc1OCCN1CCOCC1: 52%
6. COc1cc2ncnc(Oc3cc(NC(=O)Nc4cc(C(C)(C)C)on4)c(F)cc3F)c2cc1OC: 14%

Then there is this compound:
Q: What does the record list as bioavailability for COc1cc2ncnc(Oc3cccc(NC(=O)Nc4ccc(C(C)(C)C)cc4)c3)c2cc1OC ?
Ans: 15%

---

Recorded measurements of pIC50, one per entry
molecular target: Serine/threonine-protein kinase B-raf (Homo sapiens, UniProt P15056, V600E); assay: Inhibition of BRAF V600E mutant-dependent MEK phosphorylation in A375 cells
Scale: negative log10 of molar concentration, which is what pIC50 denotes.

Please review the following examples before continuing.
1. COc1cc2ncnc(Oc3cccc(NC(=O)Nc4cc(C(C)(C)C)on4)c3)c2cc1OC: 6.92
2. COc1cc2ncnc(Sc3cccc(NC(=O)Nc4cc(C(C)(C)C)on4)c3)c2cc1OC: 6.93
3. COc1cc2ncnc(Oc3cc(NC(=O)Nc4cc(C(C)(C)C)on4)ccc3F)c2cc1OC: 7.21
4. COc1cc2c(Oc3cccc(NC(=O)Nc4cc(C(C)(C)C)on4)c3)ncnc2cc1OCCCN1CCOCC1: 7.02
5. COCCOc1cc2ncnc(Oc3cccc(NC(=O)Nc4cc(C(C)(C)C)on4)c3)c2cc1OC: 7.00

Okay, next one:
Q: Give recorded pIC50 with Serine/threonine-protein kinase B-raf (Homo sapiens, UniProt P15056, V600E) for the following compound: COc1cc2ncnc(Oc3cccc(NC(=O)Nc4cc(C(C)(C)C)on4)c3)c2cc1O
Ans: 7.07

Values were extracted from ChEMBL document CHEMBL1821605.
